Reference for the values: ChEMBL document CHEMBL4219075

Please provide measured Papp at 5 h, 200 µM for the entries that follow.
test: Permeability of the compound at 200 umol/L after 5 hrs by PAMPA; format: ADME; conditions: read-out: permeability
Non-standard residues stand in square brackets, D forms with d. Residues, ends and D or L forms follow the SMILES beside them. *: point of attachment. Dolaproine = CO[C@@H]([C@@H]1CCCN1)[C@@H](C)C(=O)O; Dil = CC[C@H](C)[C@H](NC)[C@@H](CC(=O)O)OC; X1 = C[C@@H](N*)[C@@H](O)c1ccccc1; NMeV = CN[C@H](C(=O)O)C(C)C
Give bare numbers, in ×10⁻⁶ cm/s.

Hey, can you go through the list below and give me Papp at 5 h, 200 µM for every item?
1. CCOC(=O)c1csc([C@H](Cc2ccccc2)NC(=O)[C@H](C)[C@@H](OC)[C@@H]2CCCN2C(=O)C[C@@H](OC)[C@H]([C@@H](C)CC)N(C)C(=O)[C@@H](NC(=O)[C@H](C(C)C)N(C)C)C(C)C)n1
2. CC[C@H](C)[C@@H]([C@@H](CC(=O)N1CCC[C@H]1[C@H](OC)[C@@H](C)C(=O)N[C@@H](Cc1ccccc1)c1nc(C(=O)NCCO)cs1)OC)N(C)C(=O)[C@@H](NC(=O)[C@H](C(C)C)N(C)C)C(C)C
3. CC[C@H](C)[C@@H]([C@@H](CC(=O)N1CCC[C@H]1[C@H](OC)[C@@H](C)C(=O)N[C@@H](Cc1ccccc1)c1nc(C(=O)NCCNC)cs1)OC)N(C)C(=O)[C@@H](NC(=O)[C@H](C(C)C)N(C)C)C(C)C
4. CC[C@H](C)[C@@H]([C@@H](CC(=O)N1CCC[C@H]1[C@H](OC)[C@@H](C)C(=O)N[C@@H](Cc1ccccc1)c1nc(C(=O)OCCN)cs1)OC)N(C)C(=O)[C@@H](NC(=O)[C@H](C(C)C)N(C)C)C(C)C
5. CC[C@H](C)[C@@H]([C@@H](CC(=O)N1CCC[C@H]1[C@H](OC)[C@@H](C)C(=O)N[C@@H](Cc1ccccc1)c1nc(C(=O)NCCN)cs1)OC)N(C)C(=O)[C@@H](NC(=O)[C@H](C(C)C)N(C)C)C(C)C
6. CC[C@H](C)[C@@H]([C@@H](CC(=O)N1CCC[C@H]1[C@H](OC)[C@@H](C)C(=O)N[C@@H](Cc1ccccc1)c1nc(C(=O)OCCS)cs1)OC)N(C)C(=O)[C@@H](NC(=O)[C@H](C(C)C)N(C)C)C(C)C
7. CC[C@H](C)[C@@H]([C@@H](CC(=O)N1CCC[C@H]1[C@H](OC)[C@@H](C)C(=O)N[C@@H](Cc1ccccc1)c1nc(C(=O)N(C)CCN)cs1)OC)N(C)C(=O)[C@@H](NC(=O)[C@H](C(C)C)N(C)C)C(C)C

A:
[3.2, 0.02, 0.004, 0.007, 0.056, 0.005, 0.072]

Quick request: Papp at 5 h, 200 µM for each listed item, please.
1. CC[C@H](C)[C@@H]([C@@H](CC(=O)N1CCC[C@H]1[C@H](OC)[C@@H](C)C(=O)N[C@@H](Cc1ccccc1)c1nc(C(=O)NCCS)cs1)OC)N(C)C(=O)[C@@H](NC(=O)[C@H](C(C)C)N(C)C)C(C)C
2. CC[C@H](C)[C@@H]([C@@H](CC(=O)N1CCC[C@H]1[C@H](OC)[C@@H](C)C(=O)N[C@H](C)[C@@H](O)c1ccccc1)OC)N(C)C(=O)[C@@H](NC(=O)[C@@H](NC)C(C)C)C(C)C (H-[NMeV]V[Dil][Dolaproine]-X1)

A:
[1.1, 0.079]
